# assayed-target: CK2A1 (CK2α/β) (Homo sapiens, UniProt P68400)
# Sequence (P68400 whole entry, species assumed): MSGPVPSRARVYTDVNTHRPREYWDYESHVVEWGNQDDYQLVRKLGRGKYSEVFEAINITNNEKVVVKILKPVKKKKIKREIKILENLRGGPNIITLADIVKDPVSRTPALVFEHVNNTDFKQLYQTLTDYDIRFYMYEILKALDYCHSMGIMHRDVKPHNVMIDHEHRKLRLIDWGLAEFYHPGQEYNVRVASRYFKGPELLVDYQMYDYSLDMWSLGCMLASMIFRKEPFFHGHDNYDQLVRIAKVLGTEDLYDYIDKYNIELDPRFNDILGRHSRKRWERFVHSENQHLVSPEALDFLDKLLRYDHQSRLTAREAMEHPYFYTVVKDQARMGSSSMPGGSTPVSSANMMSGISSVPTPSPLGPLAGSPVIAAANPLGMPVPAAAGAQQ
# Sequence (P67870 whole entry partner, species assumed): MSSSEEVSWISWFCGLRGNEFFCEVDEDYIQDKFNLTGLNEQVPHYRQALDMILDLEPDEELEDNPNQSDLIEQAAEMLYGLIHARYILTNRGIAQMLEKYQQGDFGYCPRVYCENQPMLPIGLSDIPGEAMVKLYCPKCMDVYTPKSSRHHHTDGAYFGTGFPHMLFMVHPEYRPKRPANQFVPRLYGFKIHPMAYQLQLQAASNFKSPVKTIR
# protocol-description: CK2 kinase assay, CK2A1 (CK2α/β)
# Assay type: biochemical
# conditions-used: Table A; read-out: CK2A1 (CK2α/β) (IC50)
// assign satisfied if IC50 falls strictly below 1 nM, else not satisfied (ties count as not satisfied)

In: Strictly below 1 nM in IC50? CCNc1nc(Nc2cc(C#N)cc(N3CC[C@@H](NC(=O)OC)[C@H](OC(=O)[C@@H](N)C(C)C)C3)c2Cl)nn2c(C#N)cnc12 [Example 346]
Out: not satisfied

In: Strictly below 1 nM in IC50? CCNc1nc(Nc2cc(C#N)cc(N3CCN(C4(C)COC4)CC3)c2Cl)nn2c(C#N)cnc12 [Example 542]
Out: not satisfied

In: Strictly below 1 nM in IC50? CO[C@@H]1CN(c2cc(C#N)cc(Nc3nc(NC4CC4)c4ncc(C#N)n4n3)c2Cl)C[C@@H]1N [Example 30]
Out: satisfied

In: Strictly below 1 nM in IC50? CC(CN1CC(O)C1)c1cc(C#N)cc(Nc2nc(NC3CC3)c3ncc(C#N)n3n2)c1Cl (stereo not shown) [Example 573]
Out: not satisfied

In: Strictly below 1 nM in IC50? CCNc1nc(Nc2cc(C#N)cc(N3CCN(C4CN(C)C4)CC3)c2Cl)nn2c(C#N)cnc12 [Example 583]
Out: not satisfied

In: Strictly below 1 nM in IC50? N#Cc1cc(Nc2nc(NC3CC3)c3ncc(C#N)n3n2)c(Cl)c(C2CCN(C3CCC3=O)CC2)c1 (stereo not shown) [Example 644]
Out: satisfied

Note: attention shifts to another entry.
In: Strictly below 1 nM in IC50? CCNc1nc(Nc2cc(C#N)cc(N3CCC(NC)C3)c2Cl)nn2c(C#N)cnc12 (racemic) [Example 362]
Out: satisfied

---

# assayed-target: CK2A1 (CK2α/β) (Homo sapiens)
# protocol-description: CK2 kinase assay, CK2A1 (CK2α/β)
# Format: biochemical
# conditions-used: Table A; read-out: CK2A1 (CK2α/β) (IC50)
Structures can show the parent of a compound that is named as a salt.
# key: entry, value: IC50

Value of measured IC50 for the entry CCNc1nc(Nc2cc(C#N)cc(N3CC[C@@H](NC(=O)OC)[C@H](OC(=O)[C@@H](NC(=O)[C@@H](N)CCCNC(=N)N)C(C)C)C3)c2Cl)nn2c(C#N)cnc12 [Example 823, trihydrochloride] : 2 nM

Value of measured IC50 for the entry COC(=O)N[C@H]1CCN(c2cc(C#N)cc(Nc3nc(NC4CC4)c4ncc(C#N)n4n3)c2Cl)CC1N[C@@H](C)C(N)=O (stereo partly drawn) : 2.46 nM

Value of measured IC50 for the entry C[C@@H]1CN(c2cc(C#N)cc(Nc3nc(NC4CC4)c4ncc(C#N)n4n3)c2Cl)C[C@@H]1O (racemic) : 1.27 nM

---

# assayed-target: CK2A1 (CK2α/β) (Homo sapiens)
# protocol-description: CK2 kinase assay, CK2A1 (CK2α/β)
# Type: biochemical
# conditions-used: Table A; read-out: CK2A1 (CK2α/β) (IC50)
Structures can show the parent of a compound that is named as a salt.
property-measured: log10(IC50) (log10 of the value in nM)
All values: base-10 log of IC50 in nM.

Value of measured log10(IC50) for the entry COC(CO)CNC1CN(c2cc(C(F)F)cc(Nc3nc(NC4CC4)c4ncc(C#N)n4n3)c2Cl)C1 (racemic) : 0.70

Value of measured log10(IC50) for the entry `COCCN1CCC(N2CCN(c3cc(C#N)cc(Nc4nc(NC5CC5)c5ncc(C#N)n5n4)c3Cl)CC2)CC1` : -0.15

Value of measured log10(IC50) for the entry CC1(C)CN2CCN(c3cc(C#N)cc(Nc4nc(NC5CC5)c5ncc(C#N)n5n4)c3Cl)C[C@H]2CO1 [Example 303, HCl] : -0.16

Value of measured log10(IC50) for the entry CC(O)C(=O)N1CC(N2CCN(c3cc(C#N)cc(Nc4nc(NC5CC5)c5ncc(C#N)n5n4)c3Cl)CC2)C1 (stereo not shown) : -0.14

Value of measured log10(IC50) for the entry `CCNc1nc(Nc2cc(C#N)cc(N3CC[C@H]4NC(=O)O[C@@H]4C3)c2Cl)nn2c(C#N)cnc12` : -0.37

More entries:
Value of measured log10(IC50) for the entry `N#Cc1cc(CN2CC(O)C2)c(Cl)c(Nc2nc(NC3CC3)c3ncc(C#N)n3n2)c1` : -0.31

Value of measured log10(IC50) for the entry `N#Cc1cc(Nc2nc(NC3CC3)c3ncc(C#N)n3n2)c(Cl)c(N2CCN(C3(CO)COC3)CC2)c1` : 0.32

---

# assayed-target: CK2A1 (CK2α/β) (Homo sapiens, UniProt P68400)
# protocol-description: CK2 kinase assay, CK2A1 (CK2α/β)
# Format: biochemical
# conditions-used: Table A; read-out: CK2A1 (CK2α/β) (IC50)
# key: entry, value: pIC50
The value called pIC50 is obtained by taking minus log10 of the concentration in mol/L.

See these solved cases before continuing.
Value of measured pIC50 for the entry `CC(=O)N1CC(N2CCN(c3cc(C#N)cc(Nc4nc(NC5CC5)c5ncc(C#N)n5n4)c3Cl)C(=O)C2)C1` : 8.92

Value of measured pIC50 for the entry COC(=O)N[C@H]1CN(C2CN(c3cc(C#N)cc(Nc4nc(NC5CC5)c5ncc(C#N)n5n4)c3Cl)C2)CC1OC (stereo in doubt) : 9.31

Value of measured pIC50 for the entry `N#Cc1cc(CN2CCN(CCO)CC2)c(Cl)c(Nc2nc(NC3CC3)c3ncc(C#N)n3n2)c1` : 8.78

Value of measured pIC50 for the entry `COCCOC(=O)N1CCN(c2cc(C#N)cc(Nc3nc(NC4CC4)c4ncc(C#N)n4n3)c2Cl)CC1` : 9.17

Value of measured pIC50 for the entry CN1CCC2(CC1)CCN(c1cc(C#N)cc(Nc3nc(NC4CC4)c4ncc(C#N)n4n3)c1Cl)C2 (racemic) : 8.99

Value of measured pIC50 for the entry CC(CO)N1CC(N2CCN(c3cc(C#N)cc(Nc4nc(NC5CC5)c5ncc(C#N)n5n4)c3Cl)CC2)C1 (stereo not shown) : 8.83

Okay, next one:
Value of measured pIC50 for the entry CC1(C(=O)N2CC(N3CCN(c4cc(C#N)cc(Nc5nc(NC6CC6)c6ncc(C#N)n6n5)c4Cl)CC3)C2)COC1 [Example 522] : 8.43

---

# key: entry, value: pIC50
# assayed-target: CK2A1 (CK2α/β) (Homo sapiens, UniProt P68400)
# protocol-description: CK2 kinase assay, CK2A1 (CK2α/β)
# Type: biochemical
# conditions-used: Table A; read-out: CK2A1 (CK2α/β) (IC50)
The value called pIC50 is obtained by taking minus log10 of the concentration in mol/L.

See these solved cases before continuing.
Value of measured pIC50 for the entry `CC(C)(O)CC(=O)N1CCN(c2cc(C#N)cc(Nc3nc(NC4CC4)c4ncc(C#N)n4n3)c2Cl)CC1` : 9.31

Value of measured pIC50 for the entry `N#Cc1cc(Nc2nc(NC3CC3)c3ncc(C#N)n3n2)c(Cl)c(N2CCN(C3CN(C(=O)CC(N)=O)C3)CC2)c1` : 8.49

Value of measured pIC50 for the entry CCOC1CC1C(=O)N1CC(N2CCN(c3cc(C#N)cc(Nc4nc(NC5CC5)c5ncc(C#N)n5n4)c3Cl)CC2)C1 (stereo not shown) : 8.30

Okay, next one:
Value of measured pIC50 for the entry `CC(C)(N)CC(=O)N1CC(N2CCN(c3cc(C#N)cc(Nc4nc(NC5CC5)c5ncc(C#N)n5n4)c3Cl)CC2)C1` : 8.58

---

# key: entry, value: IC50
# assayed-target: CK2A1 (CK2α/β) (Homo sapiens, UniProt P68400)
# protocol-description: CK2 kinase assay, CK2A1 (CK2α/β)
# Type: biochemical
# conditions-used: Table A; read-out: CK2A1 (CK2α/β) (IC50)
Kindly provide the numeric value in nM only, without the unit symbol.

Value of measured IC50 for the entry N#Cc1cc(Nc2nc(NC3CC3)c3ncc(C#N)n3n2)c(Cl)c(C2(O)CCN(C3COC3)CC2)c1 [Example 648] : 0.85

Value of measured IC50 for the entry CC(O)C(=O)N1CCN(c2cc(C#N)cc(Nc3nc(NC4CC4)c4ncc(C#N)n4n3)c2Cl)CC1 (racemic) [Example 80] : 0.47

Value of measured IC50 for the entry N#Cc1cc(Nc2nc(NC3CC3)c3ncc(C#N)n3n2)c(Cl)c(N2CCC(NCC3CC3)CC2)c1 [Example 136] : 22

Okay, next one:
Value of measured IC50 for the entry COCCOC(=O)N1CCC(N2CCN(c3cc(C#N)cc(Nc4nc(NC5CC5)c5ncc(C#N)n5n4)c3Cl)CC2)C1 (stereo not shown) [Example 579] : 4.1
